Test system: microorganisms with acquired resistance
Assay: microbe, parasite or virus in culture
Format: cell-based
Settings: A. calcoaceticus 3; Piperacillin section
This section presents sequences with their documented Peptide MIC Alone values.

{"columns": ["ORDERED RESIDUES", "Peptide MIC Alone, µg/mL"],
 "data": [
  ["ILKKWPWWPWRRK [MBI 11CN]", 64],
  ["ILKKWPWWPWRRK [MBI 11E3CN]", 32],
  ["ILKKWPWWPWRR [MBI 11G7CN]", 64],
  ["ILKKWVWWPWRRK [MBI 11F3CN]", 32],
  ["ILRRVJPWWPWRRR [MBI 11B9CN]", 32]
]}

---

// reported MIC for each item listed
System: S. aureus
Assay type: cell-based
Conditions: S. aureus SA014
PROPERTY NAME: MIC (µg/mL)

{"columns": ["ORDERED RESIDUES", "VAL"],
 "data": [
  ["ALRWPWWPWRRK [MBI 11H01CN]", 2],
  ["ILAWPWWPWRRK [MBI 11H03CN]", 2],
  ["PRIWKPKWRLPKR [MBI 11J01CN]", 16],
  ["WPWWPWRRK [MBI 11G27CN]", 4],
  ["LRWWWPWRRK [MBI 11G25CN]", 2],
  ["ILRWAWWPWRRK [MBI 11H05CN]", 2],
  ["LWPWWPWRRK [MBI 11G24CN]", 2]
]}

---

Tested on: microorganisms with acquired resistance
Assay: microbe, parasite or virus in culture
Type: cell-based
Settings: H. influenzae 1
Reported Peptide MIC + Piperacillin values for a set of sequences

{"columns": ["ORDERED RESIDUES", "DISPLAY UNIT", "Peptide MIC + Piperacillin"],
 "data": [
  ["KWKSFIKKLTSAAKKVVTTAKPLISS [MBI 26]", "µg/mL", 32],
  ["ILRWVWWVWRRK [MBI 11F4CN]", "µg/mL", 64],
  ["ILKKWPWWPWRRK [MBI 11E3CN]", "µg/mL", 64],
  ["ILRWPWWPWRRK [MBI 11B7CN]", "µg/mL", 1],
  ["KKWWRRALQGLKTAGPAIQSVLNK [MBI 21A2]", "µg/mL", 64],
  ["ILKKWPWWPWRR [MBI 11G7CN]", "µg/mL", 64]
]}

---

Test system: E. faecium
Type: cell-based
Conditions: E. faecium strain EFM002
The following sequences are shown together with reported MIC values.

{"columns": ["ORDERED RESIDUES", "MIC"],
 "data": [
  ["ILKKWPWWPWK [MBI 11G13CN]", "16 µg/mL"],
  ["ILKKWAWWPWRRK [MBI 11C3CN]", "1 µg/mL"],
  ["IKKWPWWPWRRK [MBI 11G2CN]", "4 µg/mL"],
  ["ILKKWPWWVWRRK [MBI 11F2CN]", "4 µg/mL"],
  ["ILKKPWWPWRRK [MBI 11G3CN]", "32 µg/mL"],
  ["ILKKWPWWPWRRKMILKKAGS [MBI 11D4CN]", "1 µg/mL"],
  ["ILKWPWWPWRK [MBI 11B5CN]", "1 µg/mL"],
  ["ILKKWPWWWRRK [MBI 11G5CN]", "8 µg/mL"],
  ["ILRRWPWWPWRRK [MBI 11B1CN]", "2 µg/mL"],
  ["ILRRVJPWWPWRRR [MBI 11B9CN]", "4 µg/mL"]
]}
